Reference source: patent US20120058989A1

System: P. aeruginosa APAE001 (Fluoroquinolone-susceptible, ATCC27853)
assay remarks: MIC, CLSI broth microdilution
Type: cell-based
protocol conditions: Pseudomonas aeruginosa, Table 2, read-out: MIC APAE 001
measure: MIC

Some solved cases for reference:
O=C(O)c1cn(C2CC2)c2c3c(c(F)cc2c1=O)N1CCCC1CCO3 (centres unmarked) yielded MIC of > 8 µg/mL

For record COc1c(N2C[C@@H]3CCCN[C@@H]3C2)c(F)cc2c(=O)c(C(=O)O)cn(C3CC3)c12 [Moxifloxacin, reference compound] the listed MIC is 1 to 8 µg/mL

Reported MIC for N[C@H]1CC2CCCc3c(c(F)cc4c(=O)c(C(=O)O)cn(C5CC5)c34)N2C1 (some centres unmarked) was 1 to 8 µg/mL

Query O=C(O)c1cn(C2CC2)c2c3c(c(F)cc2c1=O)N1CCC[C@H]1CCC3 yields MIC of > 8 µg/mL

Continuing:
Sample N[C@H]1C[C@H]2CCOc3c(c(F)cc4c(=O)c(C(=O)O)cn(C5CC5)c34)N2C1 ; MIC observed: ≤ 1 µg/mL

The measured MIC associated with C[C@H]1COc2c(N3CCN(C)CC3)c(F)cc3c(=O)c(C(=O)O)cn1c23 [Levofloxacin, reference compound] reads 1 to 8 µg/mL

MIC measured on O=C(O)c1cn(C2CC2)c2c3c(c(F)cc2c1=O)N1CCCC1CO3 (centres unmarked) [Comparative Compound 1, reference compound] = > 8 µg/mL

---

This section presents compounds with their documented MIC values.
System: A. baumannii AABA1065 (Fluoroquinolone-susceptible)
assay remarks: MIC, CLSI broth microdilution
Assay type: cell-based
protocol conditions: Acinetobacter baumannii, Table 2, read-out: MIC AABA 1065

# count of solved cases: 2
The compound O=C(O)c1cn(C2CC2)c2c3c(c(F)cc2c1=O)N1CCCC1CCO3 (stereo not drawn) [32/1] , tested on A. baumannii AABA1065 (Fluoroquinolone-susceptible), showed MIC of 1 to 8 µg/mL

Entry N[C@H]1CC2CC=Cc3c(c(F)cc4c(=O)c(C(=O)O)cn(C5CC5)c34)N2C1 (stereo partly drawn) [32 /5] under A. baumannii AABA1065 (Fluoroquinolone-susceptible) had MIC of ≤ 1 µg/mL

// below: MIC requested for another compound
Form field, MIC with A. baumannii AABA1065 (Fluoroquinolone-susceptible), item O=C(O)c1cn(C2CC2)c2c3c(c(F)cc2c1=O)N1CCCC1CO3 (stereo not drawn) [Comparative Compound 1, reference compound] : > 8 µg/mL

---

System: S. pneumoniae ASPN001 (Fluoroquinolone-susceptible, ATCC49619)
assay remarks: MIC, CLSI broth microdilution
Type: cell-based
protocol conditions: Streptococcus pneumoniae, Table 2, read-out: MIC ASPN 001
measure: MIC

The compound identified as O=C(O)c1cn(C2CC2)c2c3c(c(F)cc2c1=O)N1CCCC1CCO3 (stereo not drawn) [32/1] registered its MIC at 1 to 8 µg/mL

The recorded MIC for entry N[C@H]1C[C@H]2CCCc3c(c(F)cc4c(=O)c(C(=O)O)cn(C5CC5)c34)N2C1 [3/15] equals ≤ 1 µg/mL

In plain terms, COc1c(N2C[C@@H]3CCCN[C@@H]3C2)c(F)cc2c(=O)c(C(=O)O)cn(C3CC3)c12 [Moxifloxacin, reference compound] has a documented MIC of ≤ 1 µg/mL

MIC reading for CO/N=C1\CN(c2nc3c(cc2F)c(=O)c(C(=O)O)cn3C2CC2)CC1CN (stereo not drawn) [Gemifloxacin, reference compound] : ≤ 1 µg/mL

***
Per the records, this compound ( N[C@H]1CC2CCCc3c(c(F)cc4c(=O)c(C(=O)O)cn(C5CC5)c34)N2C1 (stereo partly drawn) [32/4] ) has MIC equal to ≤ 1 µg/mL

Lab note: N[C@H]1CC2CC=Cc3c(c(F)cc4c(=O)c(C(=O)O)cn(C5CC5)c34)N2C1 (stereo partly drawn) [32 /5] gave MIC of ≤ 1 µg/mL

Entry N[C@H]1C[C@H]2CCOc3c(c(F)cc4c(=O)c(C(=O)O)cn(C5CC5)c34)N2C1 [32/2] ; MIC = ≤ 1 µg/mL

// MIC lookup, compound = C[C@H]1COc2c(N3CCN(C)CC3)c(F)cc3c(=O)c(C(=O)O)cn1c23 [Levofloxacin, reference compound] , result: 1 to 8 µg/mL

Given item O=C(O)c1cn(C2CC2)c2c3c(c(F)cc2c1=O)N1CCC[C@H]1CCC3 [1/10] , the value recorded as its MIC is ≤ 1 µg/mL

---

Parameter: MIC. Scope: all listed entries.
System: P. aeruginosa APAE001 (Fluoroquinolone-susceptible, ATCC27853)
assay remarks: MIC, CLSI broth microdilution
Type: cell-based
protocol conditions: Pseudomonas aeruginosa, Table 2, read-out: MIC APAE 001

Looking up CO/N=C1\CN(c2nc3c(cc2F)c(=O)c(C(=O)O)cn3C2CC2)CC1CN (stereo not shown) [Gemifloxacin, reference compound] , I found its MIC recorded as ≤ 1 µg/mL

---

Tested on: P. aeruginosa APAE001 (Fluoroquinolone-susceptible, ATCC27853)
assay remarks: MIC, CLSI broth microdilution
Type: cell-based
protocol conditions: Pseudomonas aeruginosa, Table 2, read-out: MIC APAE 001
measure: MIC

Take a look at these entries with their results.
Value of measured MIC for the entry N[C@H]1C[C@H]2CCCc3c(c(F)cc4c(=O)c(C(=O)O)cn(C5CC5)c34)N2C1 : 1 to 8 µg/mL

Note to self: MIC recorded for N[C@H]1CC2CC=Cc3c(c(F)cc4c(=O)c(C(=O)O)cn(C5CC5)c34)N2C1 (stereo partly drawn) was ≤ 1 µg/mL

---
According to the records, this compound O=C1CC2CCCN2c2c(F)cc3c(=O)c(C(=O)O)cn(C4CC4)c3c2N1 (stereo not drawn) displays MIC of > 8 µg/mL
